- assay_overview: Octanol-phosphate buffer partition coefficient, log D of the compound at pH 7.4 by shake flask method
- Assay type: physicochemical
quantity_kind: logD
Number only, no unit.

Worked cases, answers included:
Quick note, logD for COc1ccc2ncc(=O)n(CCN3CC[C@H](NCc4cc5c(cn4)OCCO5)[C@@H](OC)C3)c2c1 (single isomer, unassigned; enantiomer 1) landed at 1.27

Quick note, logD for N#Cc1ccc2ccc(=O)n(CCN3CCC(NCc4cc5c(cn4)OCCO5)CC3)c2c1 landed at 0.68

Quick note, logD for N#Cc1ccc2ccc(=O)n(CCN3CC[C@@H](NCc4ccc5c(n4)NC(=O)CO5)[C@@H](O)C3)c2c1 landed at 0.1

Quick note, logD for CO[C@H]1CN(CCn2c(=O)ccc3ccc(C#N)cc32)CC[C@H]1NCc1ccc2c(n1)NC(=O)CO2 landed at 0.32

Quick note, logD for CO[C@H]1CN(CCn2c(=O)ccc3ccc(C#N)cc32)CC[C@H]1NCc1cc2c(cn1)OCCO2 landed at 0.63

Quick note, logD for N#Cc1ccc2ccc(=O)n(CCN3CC[C@H](NCc4cc5c(cn4)OCCO5)[C@@H](F)C3)c2c1 (single isomer, unassigned; enantiomer B) landed at 1.53

Quick note, logD for COc1ccc2ncc(=O)n(CCN3CC[C@H](NCc4cc5c(cn4)OCCO5)[C@@H](F)C3)c2c1 (single isomer, unassigned; enantiomer B) landed at 1.68

Quick note, logD for COc1ccc2ncc(=O)n(CCN3CC[C@H](NCc4ccc5c(n4)NC(=O)CO5)[C@H](O)C3)c2c1 landed at 0.39

Quick note, logD for COc1ccc2ncc(=O)n(CCN3CCC(NCc4ccc5c(n4)NC(=O)CO5)CC3)c2c1 landed at 0.6

Quick note, logD for N#Cc1ccc2ccc(=O)n(CCN3CC[C@H](NCc4cc5c(cn4)OCCO5)[C@H](F)C3)c2c1 landed at 0.96

Please turn your attention to the following entry.
Quick note, logD for COc1ccc2ncc(=O)n(CCN3CC[C@@H](NCc4ccc5c(n4)NC(=O)CO5)[C@@H](O)C3)c2c1 landed at 0.37

###

Quick list: logD per entry.
- assay_overview: Octanol-phosphate buffer partition coefficient, log D of the compound at pH 7.4 by shake flask method
- Type: physicochemical
Number only, no unit.

Worked cases, answers included:
Quick note, logD for COc1ccc2ncc(=O)n(CCN3CC[C@H](NCc4ccc5c(n4)NC(=O)CO5)[C@@H](F)C3)c2c1 (single isomer, unassigned; enantiomer B) landed at 1.38

Quick note, logD for COc1ccc2ncc(=O)n(CCN3CC[C@@H](NCc4cc5c(cn4)OCCO5)[C@@H](OC)C3)c2c1 landed at 0.9

Further cases:
Quick note, logD for N#Cc1ccc2ccc(=O)n(CCN3CC[C@H](NCc4ccc5c(n4)NC(=O)CO5)[C@H](O)C3)c2c1 landed at 0.11
